# Test system: Mycobacterium tuberculosis
# run-description: In vitro antituberculosis activity against Mycobacterium tuberculosis H37Rv using the BACTEC 12B medium using a micro dilution assay( MABA)
# Assay type: functional
property: MIC

Below: 2 compounds and their reported MIC.
smiles-notation	MIC
C=CCNC(=S)Nc1ccc(-c2n[nH]c(=S)n2CC)cc1	> 12.5 µg/mL
CCNC(=S)Nc1ccc(-c2n[nH]c(=S)n2C)cc1	< 12.5 µg/mL

We next turn to a different compound, shown below.
Asked: Look up MIC: "CNC(=S)Nc1ccc(-c2n[nH]c(=S)n2C)cc1"
Given back: < 12.5 µg/mL

Entry source: ChEMBL document CHEMBL1134120
